Attribution: PubChem BioAssay (NCI)

- System: NCI-H23 lung
- ASSAY: NCI-60 one-dose screen, 48 h
- EXPERIMENTAL CONDITIONS: 10 µM unless noted
- Procedure: Growth inhibition of the NCI-H23 human Non-Small Cell Lung tumor cell line is measured as a screen for anti-cancer activity. Cells are grown in 96 well plates and exposed to the test compound for 48 hours. Compounds are tested at a single concentration, which is 10^-5 M for most compounds. The reported endpoint is percent growth (GI% or GIPRCNT), where numbers from 0 - 100% represent growth inhibition, and numbers from -100% - 0 represent cell death. […]
Compounds without any hit were thinned out: in the full panel of roughly 83,000, 20% have a hit. Active and inactive are the calls of the source. The calls were made as follows: active = growth percent below 10; inactive = the rest.
Choose one outcome from this list and give only that: true = active, false = inactive

[
  {
    "COMPOUND STRUCTURE": "Cc1ccccc1/C=C/c1nn2c(-c3ccoc3C)nnc2s1",
    "LABEL": "false"
  }
]

**Query** Tell me the assay call for CN(C)c1ncc(/C=C2\SC(=S)N(Cc3ccccc3Cl)C2=O)s1 please.
**Result** false

**Query** And what about the compound CCNCc1c(-c2cccc(OC(F)(F)F)c2)[nH]c2ccc(N3CCCC3)cc2c1=O ?
**Result** false

**Query** And what about the compound COc1cc2c3c(n(CCCNCC4CC4)c(=O)c2cc1OC)-c1cc2c(cc1C3=O)OCO2 ?
**Result** true

**Query** And what about the compound CCOC(=O)c1c(NC(=O)c2ccc(C(C)(C)C)cc2)sc2cc(OCCN3CCCCC3)ccc12 ?
**Result** false

###

- Tested on: NCI-H522 lung
- ASSAY: NCI-60 one-dose screen, 48 h (100 = growth as untreated, 0 = no growth, -100 = all killed)
- EXPERIMENTAL CONDITIONS: 10 µM unless noted
About 83,000 compounds went through this panel and 20% of them were active in at least one assay; those are over-represented in the sample as a whole.
METRIC: growth (%)
# unit: % | format: bare number

[
  {
    "COMPOUND STRUCTURE": "CCc1ccc(NC(=O)N[C@@H](Cc2cccc(F)c2)C(=O)N[C@@H]2C(=O)N3CCC[C@H]3C(=O)N3CCCC[C@H]3C(=O)N[C@@H](C)C(=O)N3C[C@H](C)C[C@H]3C(=O)O[C@H]2C)c(F)c1",
    "VALUE OBSERVED": 26.8
  }
]

**Query** Request: growth, test system NCI-H522 lung, entry CC1(COc2ccc3ncc(C#Cc4cncc(C(=O)Nc5cc(C(C)(C)C)on5)c4)n3n2)COC1
**Result** 56.9

###

- Tested on: A498 renal
- ASSAY: NCI-60 one-dose screen, 48 h
- EXPERIMENTAL CONDITIONS: 10 µM unless noted
- Procedure: Growth inhibition of the A498 human tumor cell line is measured as a screen for anti-cancer activity. Cells are grown in 96 well plates and exposed to the test compound for 48 hours. Compounds are tested at a single concentration, which is 10^-5 M for most compounds. The reported endpoint is percent growth (GI% or GIPRCNT), where numbers from 0 - 100% represent growth inhibition, and numbers from -100% - 0 represent cell death. For example, a value of 40 represents 60% growth inhibition. […]
Compounds without any hit were thinned out: in the full panel of roughly 83,000, 20% have a hit. The source made the active and inactive calls. Rule for the calls: active = growth percent below 10; inactive = the rest.
Choose one outcome from this list and give only that: active, inactive

# count of solved cases: 6
[
  {
    "COMPOUND": "Cc1cnc2nc(NN)[nH]n12",
    "LABEL": "inactive"
  },
  {
    "COMPOUND": "O=C(NNc1nc2cc(F)c(F)cc2n2cccc12)c1cccnn1",
    "LABEL": "inactive"
  },
  {
    "COMPOUND": "COc1cc(NC2=C(Cl)C(=O)c3nc(C)ccc3C2=O)cc(OC)c1",
    "LABEL": "inactive"
  },
  {
    "COMPOUND": "COc1ccc(Oc2ccc(C3CC(c4cc(OC)c(OC)c(OC)c4)=NN3C(C)=O)cc2)cc1 (stereo not drawn)",
    "LABEL": "inactive"
  },
  {
    "COMPOUND": "CCCCCc1ccc(S(=O)(=O)N(C(C)=O)c2cccc(-c3csc(N(CCN4CCN(C)CC4)C(C)=O)n3)c2)cc1",
    "LABEL": "inactive"
  },
  {
    "COMPOUND": "O=C(/C=C/c1cn(-c2ccccc2)nc1-c1ccc(Cl)cc1)c1cc2ccccc2oc1=O",
    "LABEL": "inactive"
  }
]

**Query** Tell me the assay call for O=S(=O)(Nc1ccc2c(c1)OC(F)(F)O2)c1ccc(-c2cnc(C3CC3)o2)cc1 please.
**Result** inactive

**Query** And what about the compound COc1ccc(Cn2cc3c(c2-c2ccccc2)CCCc2cnoc2-3)cc1[N+](=O)[O-] ?
**Result** inactive

**Query** And what about the compound Fc1ccc(-c2cc3nc(C(Cl)Cl)nc(-c4cccs4)n3n2)cc1 ?
**Result** active

**Query** And what about the compound COc1cnc2c(c1)C(=O)c1c-2n(CCCNCC2CC2)c(=O)c2cc(F)ccc12 ?
**Result** active

**Query** And what about the compound Cc1[nH]nc2ccc(-c3nc4cnc(N5CCN(C)CC5)cn4c3Nc3ccc(F)cc3Br)cc12 ?
**Result** inactive

**Query** And what about the compound O=C1CSC(=O)N1Cc1cc2ccccc2nc1Cl ?
**Result** inactive

**Query** And what about the compound COc1ccc([C@H]2[C@H](O)C(=O)N2c2cc(OC)c(OC)c(OC)c2)cc1 ?
**Result** active

**Query** And what about the compound C/C(=C(/c1ccc(O)cc1)c1ccc(OCCN2CCCCCC2)cc1)c1ccccc1 ?
**Result** inactive

**Query** And what about the compound O=C(NNc1nc2cc(F)c(F)cc2n2cccc12)c1ncccn1 ?
**Result** inactive

**Query** And what about the compound CN(c1ccc(Cl)cc1)S(=O)(=O)c1ccc(-c2cnc(C3CC3)o2)cc1 ?
**Result** inactive

**Query** And what about the compound O=C(NCCCCCCNC(=O)c1c2c(nc3ccccc13)-c1cccnc1SC2)c1c2c(nc3ccccc13)-c1cccnc1SC2 ?
**Result** inactive

**Query** And what about the compound CCN1C(=O)N(CC)C2SC(N/N=C/c3ccccc3F)=NC21 (stereo not drawn) ?
**Result** active

**Query** And what about the compound COC(=O)c1c(C(=O)OC)c2n(CC(=O)Nc3cccc4cccnc34)c3ccccc3n2c1C(=O)c1ccc(C)cc1 ?
**Result** inactive

**Query** And what about the compound O=S(=O)(Nc1ccc(-n2cnc3cc(-c4ccc(O)cc4)ccc32)cc1)C1CC1 ?
**Result** inactive

**Query** And what about the compound C#Cc1ccc(NC(=O)c2ccc(/C=C/C(=O)c3nccn3C)cc2)c(F)c1 ?
**Result** inactive

**Query** And what about the compound CCOC(=O)Nc1ccc(-c2nc(-c3cccc(O)c3)c(-c3ccnc(Br)c3)[nH]2)cc1 ?
**Result** inactive

**Query** And what about the compound O=C1c2c(c3c4cc(Br)ccc4[nH]c3c3ccc4ccccc4c23)C(=O)N1CCN1CCCCC1 ?
**Result** inactive

**Query** And what about the compound COc1ccc(-c2nnc(SCc3ccc(O)c4ncccc34)n2-c2ccccc2)cc1 ?
**Result** inactive

###

- System: NCI-H226 lung
- ASSAY: NCI-60 one-dose screen, 48 h (100 = growth as untreated, 0 = no growth, -100 = all killed)
- EXPERIMENTAL CONDITIONS: 10 µM unless noted
- Experimental: Growth inhibition of the NCI-H226 human Non-Small Cell Lung tumor cell line is measured as a screen for anti-cancer activity. Cells are grown in 96 well plates and exposed to the test compound for 48 hours. Compounds are tested at a single concentration, which is 10^-5 M for most compounds. The reported endpoint is percent growth (GI% or GIPRCNT), where numbers from 0 - 100% represent growth inhibition, and numbers from -100% - 0 represent cell death. […]
About 83,000 compounds went through this panel and 20% of them were active in at least one assay; those are over-represented in the sample as a whole.
Define the label as Met when growth is strictly less than 80% and as Not met in all remaining cases.

# count of solved cases: 5
[
  {
    "COMPOUND": "CCNCCCn1c2c(c3cc(OC)c(OC)cc3c1=O)C(=O)c1cc(OC)cnc1-2",
    "TARGET SYSTEM": "NCI-H226 lung",
    "LABEL": "Met"
  },
  {
    "COMPOUND": "CCCCCCCCCC[C@@H](C)[C@@H]1CC(=O)N[C@H]([C@@H](C)O)C(=O)N[C@@H](C)C(=O)N[C@H](C)C(=O)N[C@@H](CCC(N)=O)C(=O)N[C@H](Cc2ccc(O)cc2)C(=O)N[C@@H](C(C)CC)C(=O)O1 (stereo partly drawn)",
    "TARGET SYSTEM": "NCI-H226 lung",
    "LABEL": "Met"
  },
  {
    "COMPOUND": "Oc1ccc(CSc2nnc(-c3ccc(Oc4ccccc4)cc3)n2-c2ccccc2)c2cccnc12",
    "TARGET SYSTEM": "NCI-H226 lung",
    "LABEL": "Met"
  },
  {
    "COMPOUND": "Cc1ccccc1/C=C/c1nn2c(-c3ccoc3C)nnc2s1",
    "TARGET SYSTEM": "NCI-H226 lung",
    "LABEL": "Not met"
  },
  {
    "COMPOUND": "Nc1nc(-c2cccc([N+](=O)[O-])c2)c(N=Nc2cccc(Cl)c2)s1",
    "TARGET SYSTEM": "NCI-H226 lung",
    "LABEL": "Met"
  }
]

**Query** Is the reported growth for CS(=O)(=O)c1ccc(-c2nn(-c3ccccc3)cc2/C=C/C(=O)c2ccc(Br)cc2)cc1 strictly below 80%?
**Result** Not met

**Query** And what about the compound O=S(=O)(Nc1ccc(-c2nc(-c3cccc(O)c3)c(-c3ccnc(Br)c3)[nH]2)cc1)c1ccccc1 ?
**Result** Met

**Query** And what about the compound Cc1ccc(NC(=O)c2cccc(CN3CCN(C)CC3)c2)cc1Oc1ccc(-c2[nH]nc3ncnc(N)c23)cc1 ?
**Result** Met
